meta.source: PubChem BioAssay (NCI)

Experimental details: NCI Yeast Anticancer Drug Screen. Data for the rad50 strain (AID 155);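 note: 0% = growth of vehicle-only cultures of the same strain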
Test parameters: S. cerevisiae rad50 strain growth inhibition; at 50.0 µM; hits give high values
Method: Growth inhibition of yeast strains with defined genetic alterations is measured as a screen for potential anti-cancer activity. Selected strains with alterations in DNA damage repair or cell cycle control were exposed to compounds and growth inhibition was measured relative to vehicle treated controls. The strain used in this assay is rad50
This is part of a sample that, as a whole, favours compounds with a hit. Of some 79,000 tested, about 15% had one in any assay.
Readout name: growth inhibition (%)
Numbers only; they are read as %.

| Compound | Unit of measure | growth inhibition |
| --- | --- | --- |
| CCCCCCCCCCCCCCCCS(=O)(=O)N/N=c1\cc(-c2ccccc2Cl)c2ccccc2n1C | % | -0.15 |

Turning now to a further compound:
Task: Fill in growth inhibition for record COc1ccc(CC#N)c(OCc2ccccc2)c1
Result: 2.35
